Kindly supply the reported GI50 values for the records listed here.
- Tested on: NCI-H226
- Assay remarks: NCI tumour cell line growth inhibition, 48 h
Active and inactive are the calls of the source. Cut-off read from the data, not from the text of the source: active = GI50 up to about 1.1 µM and inactive = higher.

## Task So what's the measured GI50 for this one? N#CCc1nc(C#N)c(N)o1
## Result > 100 µM (inactive)

## Task Next: O=S(=O)(NCn1ccc2ccccc21)c1ccccc1
## Result > 100 µM (inactive)

## Task Next: CC/C(CC(=O)CCC(=O)Nc1ccc(C)c(C)c1)=N\NC(=O)C(N)=O
## Result > 100 µM (inactive)

## Task Next: CC1(C)CCC[C@]2(C)[C@@H](C=O)C(C=O)=CC[C@@H]12 [POLYGODIAL]
## Result 20 µM (inactive)

## Task Next: C=CCNC(=O)/C=C\C(=O)O
## Result > 100 µM (inactive)

====

- Test system: NCI-H460
- Assay remarks: NCI tumour cell line growth inhibition, 48 h
The source made the active and inactive calls. Rule as the data show it: active = GI50 up to about 1.1 µM and inactive = higher.
// one of label 1 = active, label 0 = inactive, no free text

## Task Short answer needed: outcome of this test for COc1cccc(-c2cc(O)c3cc(N4CCOCC4)ccc3n2)c1 ?
## Result label 1

## Task Next: C[C@@H]1CC[C@H]2C(C)(C)[C@H]3C[C@@]12CC[C@@]3(C)O [CEDROL]
## Result label 0

## Task Next: O=[N+]([O-])C(=C(Cl)Cl)C(Cl)=C(Cl)Cl
## Result label 0

## Task Next: CCOC(=O)C1(N)CC1
## Result label 0

====

- Test system: NCI-H23
- Assay remarks: NCI tumour cell line growth inhibition, 48 h
Activity calls are given as the source filed them. Cut-off read from the data, not from the text of the source: active = GI50 up to about 1.1 µM and inactive = higher.
// one of TRUE = active, FALSE = inactive, no free text

## Task Short answer needed: outcome of this test for Cc1cc(O)nc(NNC(C#N)c2ccccc2O)n1 (stereo not drawn) ?
## Result FALSE

## Task Next: O=[N+]([O-])C(C(Cl)=C(Cl)Cl)=C(N1CCOCC1)N1CCOCC1
## Result FALSE

## Task Next: O=C(Nc1ccc(Cl)cc1)c1cc(S(=O)(=O)Nc2n[nH]c(=O)n2-c2ccccc2)c(S)cc1Cl
## Result FALSE

## Task Next: COc1cc(/C=C2\N=C(c3ccccc3)N(c3nc4ccccc4s3)C2=O)cc(OC)c1OC
## Result FALSE

## Task Next: COc1ccc(OC)c(CC2CCc3nc(N)nc(N)c3C2)c1 (stereo not drawn)
## Result TRUE

## Task Next: COc1cc[n+](C)cc1
## Result FALSE

## Task Next: CC(=O)OC1COC(n2c(=S)n(-c3ccccc3)c(=O)c3ccccc32)C(OC(C)=O)C1OC(C)=O (stereo not drawn)
## Result FALSE

## Task Next: Cc1ccc(C)c(NC(=O)CC2SC(Nc3ccccc3Cl)=NC2=O)c1 (stereo not drawn)
## Result FALSE

====

- System: OVCAR-8
- Assay remarks: NCI tumour cell line growth inhibition, 48 h
Activity calls are given as the source filed them. Rule as the data show it: active = GI50 up to about 1.1 µM and inactive = higher.
Endpoint: GI50

## Task So what's the measured GI50 for this one? O=C(NCCN1CCOCC1)c1ccc2cc(C(=O)N3CC(CCl)c4ccc([N+](=O)[O-])cc43)[nH]c2c1 (stereo not drawn)
## Result 12.1 µM (inactive)

## Task Next: Cc1ccc(S(=O)(=O)C2=Cc3ccc(C(F)(F)F)cc3C2(O)c2cccc(C(F)(F)F)c2)cc1 (stereo not drawn)
## Result 1.41 µM (inactive)

## Task Next: O=C(O)C(C(C(=O)O)P(=O)(O)O)P(=O)(O)O (stereo not drawn)
## Result > 100 µM (inactive)

## Task Next: COC1O[C@@H]2CCN3C(=O)[C@@H](OC(=O)c4ccc([N+](=O)[O-])cc4)[C@H]1C23 (stereo partly drawn)
## Result > 100 µM (inactive)

## Task Next: N#C/C(=C\c1ccc(C(O)P(=O)(O)O)cc1)C(N)=O (stereo not drawn)
## Result > 100 µM (inactive)

## Task Next: N#CC1=C(N2CCOCC2)CCC1
## Result > 100 µM (inactive)

## Task Next: O=C(CC1SC(Nc2ccccc2Cl)=NC1=O)Nc1ccc(Cl)cc1Cl (stereo not drawn)
## Result > 100 µM (inactive)

## Task Next: Cn1c2ncccc2n2c(=O)cc(O)cc12
## Result > 100 µM (inactive)

====

- Tested on: SW-620
- Assay remarks: NCI tumour cell line growth inhibition, 48 h
Activity calls are given as the source filed them. No stated cut-off is given here; in the data, active = GI50 up to about 1.1 µM and inactive = higher.
Kindly supply the reported GI50 values for the records listed here.

## Task So what's the measured GI50 for this one? CNC(=O)CNC(=O)CCC(=O)OC
## Result > 100 µM (inactive)

## Task Next: N#Cc1nc(Sc2cnsn2)c(Sc2cnsn2)nc1C#N
## Result 2.25 µM (inactive)

## Task Next: CC1=NN(c2nc(N)nc(C(C)Cl)n2)C(C)(C)C1 (stereo not drawn)
## Result > 100 µM (inactive)

====

Kindly supply the reported GI50 values for the records listed here.
- Tested on: MDA-MB-435
- Assay remarks: NCI tumour cell line growth inhibition, 48 h
Active and inactive are the calls of the source. No stated cut-off is given here; in the data, active = GI50 up to about 1.1 µM and inactive = higher.

## Task So what's the measured GI50 for this one? COc1ccc2[nH]c3nnc(N)c-3nc2c1
## Result 10.2 µM (inactive)

## Task Next: C=C(C)/C=C/C(O)[C@](C)(O)[C@H]1[C@H](O)C[C@@]2(C)[C@@H]3CCc4c(cc(OC5OC(CO)C(O)C(O)C5O)c(O)c4C)C3(C)C(=O)C[C@]12C (stereo partly drawn)
## Result > 100 µM (inactive)

## Task Next: COc1ccc(/C=C2\C[C@H]3[C@@H]4CCC5=C[C@@H](N6CCCC6)CC[C@]5(C)[C@H]4CC[C@]3(C)[C@H]2O)cc1
## Result 1.93 µM (inactive)

## Task Next: Cc1ccc(C(=O)Nc2ccc(S(=O)(=O)O)c3cc(S(=O)(=O)O)cc(S(=O)(=O)O)c23)cc1NC(=O)c1cccc(NC(=O)Nc2cccc(C(=O)Nc3cc(C(=O)Nc4ccc(S(=O)(=O)O)c5cc(S(=O)(=O)O)cc(S(=O)(=O)O)c45)ccc3C)c2)c1
## Result > 100 µM (inactive)

## Task Next: N#CC1=C(N2CCOCC2)CCC1
## Result > 100 µM (inactive)

## Task Next: COC(=O)C1SC(SC)=NC12c1ccccc1Nc1ccccc12 (stereo not drawn)
## Result 27 µM (inactive)

## Task Next: COC(=O)[C@@H](NC1(c2ccccc2)c2ccccc2-c2ccccc21)[C@@H](C(=O)OC)N(NC(=O)OCc1ccccc1)C(=O)OCc1ccccc1.COC(=O)[C@@H](NC1(c2ccccc2)c2ccccc2-c2ccccc21)[C@H](C(=O)OC)N(NC(=O)OCc1ccccc1)C(=O)OCc1ccccc1
## Result > 100 µM (inactive)

## Task Next: C=CCOC1(CC=C)C(=O)OC2C(O)COC21O (stereo not drawn)
## Result > 100 µM (inactive)

## Task Next: N#Cc1nc(Sc2cnsn2)c(Sc2cnsn2)nc1C#N
## Result 11.5 µM (inactive)

## Task Next: CC(=O)OCC12C(OC(C)=O)C[C@@H](C)C3(CC(c4ccoc4)OC3=O)C1CCC(O)C21CO1 (stereo partly drawn)
## Result > 100 µM (inactive)

## Task Next: OCCCc1ccc2c(c1)[C@H](CO)[C@@H](c1ccc(O)cc1)O2
## Result 69.3 µM (inactive)

## Task Next: O=C(NCCN1CCOCC1)c1ccc2cc(C(=O)N3CC(CCl)c4ccc([N+](=O)[O-])cc43)[nH]c2c1 (stereo not drawn)
## Result 15.5 µM (inactive)

## Task Next: CCOC(=O)CCC(NC(=O)c1ccc(Nc2nc3ccc(C(F)(F)F)cc3nc2-c2ccccc2)cc1)C(=O)OCC (stereo not drawn)
## Result 83 µM (inactive)

====

- Tested on: TK-10
- Assay remarks: NCI tumour cell line growth inhibition, 48 h
Activity calls are given as the source filed them. Rule as the data show it: active = GI50 up to about 1.1 µM and inactive = higher.
Kindly supply the reported GI50 values for the records listed here.

## Task So what's the measured GI50 for this one? COc1cc(Cn2c3c(c4c(C(=O)NCCN(C)C)c(O)ccc42)C(=O)c2ccccc2C3=O)cc(OC)c1
## Result 1.61 µM (inactive)

## Task Next: CC1(O)CCC2(C#N)CCC1C2O (stereo unspecified)
## Result > 100 µM (inactive)

## Task Next: CO[C@@]12C[C@@H](C)[C@]34O[C@H]3C[C@]3(C)O[C@]43CC1=C(C)C(=O)O2
## Result > 100 µM (inactive)

## Task Next: O=C1c2ccccc2C(=O)c2c(OCCOCCO)cccc21
## Result 53.6 µM (inactive)

## Task Next: Cc1c(O)c(OC2OC(CO)C(O)C(O)C2O)cc2c1C=C[C@@H]1[C@@]2(C)C(=O)C[C@]2(C)[C@@H]([C@@](C)(O)C(=O)CCC(C)(C)O)[C@H](O)C[C@@]12C (stereo partly specified)
## Result 18.1 µM (inactive)

## Task Next: O=C1CC(=O)NC(NN2C(=O)CSC2c2ccc(Cl)c(Cl)c2)=N1 (stereo unspecified)
## Result > 100 µM (inactive)

The origin of these recorded values is ChEMBL document CHEMBL1201862.
